Below, each of the compounds is paired with its reported bioavailability value.
assay: Bioavailability in rat at 10 mg/kg, po; assay type: ADME, organism-based; details: in vivo
Response body: numeric value in %, unit text excluded.

Solved cases (4 shown):
Given CC(C)(C)OC(=O)N[C@H](C(=O)N1C[C@H]2[C@@H]([C@H]1C(=O)NC(CC1CC1)C(=O)C(N)=O)C2(C)C)C1CCCCC1 (stereo not given in full) , state its recorded bioavailability.
3.4

bioavailability for CC(C)(C)NC(=O)N[C@H](C(=O)N1C[C@H]2[C@@H]([C@H]1C(=O)NC(CC1CC1)C(=O)C(N)=O)C2(C)C)C(C)(C)C (stereo not given in full) ?
16

Would you mind telling me what bioavailability value was observed for CC(C)NC(=O)N[C@H](C(=O)N1C[C@H]2[C@@H]([C@H]1C(=O)NC(CC1CCC1)C(=O)C(N)=O)C2(C)C)C(C)(C)C (stereo not given in full) ?
13

Endpoint output: bioavailability of CC(C)(C)OC(=O)N[C@H](C(=O)N1C[C@H]2[C@@H]([C@H]1C(=O)NC(CC1CCC1)C(=O)C(N)=O)C2(C)C)C1CCCCC1 (stereo not given in full) . Value?
28

New cases:
What does the record list as bioavailability for CC(C)(C)NC(=O)N[C@H](C(=O)N1C[C@H]2[C@@H]([C@H]1C(=O)NC(CC1CCC1)C(=O)C(N)=O)C2(C)C)C(C)(C)C (stereo not given in full) [BOCEPREVIR] ?
26

###

assay: AUC in rat at 10 mg/kg, po; assay type: ADME, organism-based; design: dose 10 mg/kg, route oral; details: plasma
Param label: returns condition met when AUC < 1 µM·h, returns condition not met otherwise, including exact equality.

Hello, is AUC of the following compound strictly smaller than 1 µM·h? CC(C)(C)OC(=O)N[C@H](C(=O)N1C[C@H]2[C@@H]([C@H]1C(=O)NC(CC1CC1)C(=O)C(N)=O)C2(C)C)C1CCCCC1 (stereo not given in full)
condition not met

Hello, is AUC of the following compound strictly smaller than 1 µM·h? CC(C)(C)NC(=O)N[C@H](C(=O)N1C[C@H]2[C@@H]([C@H]1C(=O)NC(CC1CCC1)C(=O)C(N)=O)C2(C)C)C(C)(C)C (stereo not given in full) [BOCEPREVIR]
condition not met

Hello, I'm reviewing records and need to know if AUC of CC(C)(C)OC(=O)N[C@H](C(=O)N1C[C@H]2[C@@H]([C@H]1C(=O)NC(CC1CCC1)C(=O)C(N)=O)C2(C)C)C1CCCCC1 (stereo not given in full) is below 1 µM·h. Could you check?
condition not met

Shift focus to the following entry.
API: query returns whether the compound falls strictly under 1 µM·h in AUC. Query: CC(C)NC(=O)N[C@H](C(=O)N1C[C@H]2[C@@H]([C@H]1C(=O)NC(CC1CCC1)C(=O)C(N)=O)C2(C)C)C(C)(C)C (stereo not given in full)
condition met

###

assay: Selectivity for human neutrophil elastase (HNE) over HCV NS3 protease
Measurement type: Selectivity ratio

Record excerpt, results attached:
# get_value(readout='Selectivity ratio', item= CC(C)(C)OC(=O)N[C@H](C(=O)N1C[C@H]2[C@@H]([C@H]1C(=O)NC(CC1CCC1)C(=O)C(N)=O)C2(C)C)C1CCCCC1 (stereo partly specified) )
138

Consider the molecule shown here: CC(C)(C)NC(=O)N[C@H](C(=O)N1C[C@H]2[C@@H]([C@H]1C(=O)NC(CC1CC1)C(=O)C(N)=O)C2(C)C)C(C)(C)C (stereo partly specified) What is its recorded Selectivity ratio?
369

Look up Selectivity ratio: CC(C)COC(=O)N[C@H](C(=O)N1C[C@H]2[C@@H]([C@H]1C(=O)NC(CC1CC1)C(=O)C(N)=O)C2(C)C)C(C)(C)C (stereo partly specified)
160

Others:
// Selectivity ratio lookup, key: CC(C)(C)NC(=O)N[C@H](C(=O)N1C[C@H]2[C@@H]([C@H]1C(=O)NC(CC1CCC1)C(=O)C(N)=O)C2(C)C)C(C)(C)C (stereo partly specified) [BOCEPREVIR]
2200

I would be grateful if you could share the reported Selectivity ratio for CC(C)CC(NC(=O)[C@@H]1[C@@H]2[C@H](CN1C(=O)[C@@H](NC(=O)OC(C)(C)C)C1CCCCC1)C2(C)C)C(=O)C(N)=O (stereo partly specified) .
9

Param item = C[C@@H](NC(=O)N[C@H](C(=O)N1C[C@H]2[C@@H]([C@H]1C(=O)NC(CC1CCC1)C(=O)C(N)=O)C2(C)C)C(C)(C)C)C(C)(C)C (stereo partly specified) ; retrieve measured Selectivity ratio.
380
